Data credit: ChEMBL document CHEMBL3885861

We begin with a simple list: items and their reported TP.
species: Rattus norvegicus; assay: Open TG-GATES - Regimen: Single; format: toxicity, organism-based, Sprague-Dawley; parameters: regimen Single, gender Male, age 6 weeks; conditions: in vivo, po, 100 mg/kg, 24 h, tissue Plasma, route gavage, dose level Low
Reply with just the number (in g/dL).

Some molecules with recorded TP:
                                   molecule  numeric_readout
0    Clc1ccccc1CN1CCc2sccc2C1 [TICLOPIDINE]              5.5
1          CCc1cc(C(N)=S)ccn1 [ETHIONAMIDE]              5.5
2  O=C(O)c1cc(/N=N/c2ccc(S(=O)(=O)Nc3ccccn3)cc2)ccc1O [SULFASALAZINE]              5.7

Please give the measured TP for this molecule: C[C@H](CS)C(=O)N1CCC[C@H]1C(=O)O [CAPTOPRIL]
5.8

Please look up its TP: O=C(O)c1cn(C2CC2)c2cc(N3CCNCC3)c(F)cc2c1=O [CIPROFLOXACIN]
5.9
